# Target Entity: human recombinant ERβ (Homo sapiens, UniProt Q92731)
# Construct: purchased PanVera (Madison, Wis.)
# Sequence (Q92731 whole entry): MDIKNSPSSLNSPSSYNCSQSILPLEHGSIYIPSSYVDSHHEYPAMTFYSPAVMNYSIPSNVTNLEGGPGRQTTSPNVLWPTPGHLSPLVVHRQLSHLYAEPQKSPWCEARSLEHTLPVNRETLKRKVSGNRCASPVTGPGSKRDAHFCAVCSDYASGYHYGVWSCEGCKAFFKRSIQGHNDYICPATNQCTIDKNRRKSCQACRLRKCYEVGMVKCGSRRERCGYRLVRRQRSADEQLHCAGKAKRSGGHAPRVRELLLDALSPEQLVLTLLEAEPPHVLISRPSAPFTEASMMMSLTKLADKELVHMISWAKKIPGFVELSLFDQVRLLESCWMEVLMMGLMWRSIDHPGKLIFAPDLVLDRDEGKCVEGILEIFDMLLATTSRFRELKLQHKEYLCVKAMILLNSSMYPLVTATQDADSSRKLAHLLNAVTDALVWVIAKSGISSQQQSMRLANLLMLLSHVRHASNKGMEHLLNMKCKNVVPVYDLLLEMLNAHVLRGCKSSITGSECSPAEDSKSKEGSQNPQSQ
# Protocol Description: Fluorescence polarization estrogen receptor (ERFP) binding assay, ERβ
# Condition Details: ratio α-ER Ki / β-ER Ki
Reported Metric: FP Selectivity

Look over these answered cases.
- Molecule: "Cc1ccccc1C1c2ccc(O)cc2CCN1c1ccc(O)cc1 (stereo not shown)"
  FP Selectivity: 2.2
- Molecule: "O=C(c1ccc(O)cc1)N1CCc2cc(O)ccc2C1"
  FP Selectivity: 2.9
- Molecule: "O=C(c1ccc(O)cc1)N1CCc2ccc(O)cc2C1"
  FP Selectivity: 3.1
- Molecule: "Cc1ccc(N2CCc3cc(O)ccc3C2c2cccs2)cc1O (stereo not shown)"
  FP Selectivity: 3.5

(I) Oc1ccc(N2CCc3cc(O)ccc3C2)cc1
(II) CSc1ccc(C2c3ccc(O)cc3CCN2c2ccc(O)cc2)cc1 (stereo not shown)
(III) Oc1ccc(N2CCc3cc(O)ccc3C2c2ccc(Cl)cc2Cl)cc1 (stereo not shown)
### Prompt Sort entries by FP Selectivity from minimum to maximum value. Give the labels in the order requested.
### Response II, III, I
